Tested on: HaCaT cell line
Test: Inhibition of keratinocyte proliferation (3H-thymidine uptake)
Assay type: cell-based, human
Settings: Homo sapiens, HaCaT; 3H-thymidine incorporation after 6 days of culture in presence of the test compound
quantity measured: IC50 (nM)
Numbers only here, please. The scale is nM.

Recorded IC50 (molecule C=C1/C(=C\C=C2/CCC[C@]3(C)[C@@H]([C@H](C)CCCC(C)(C)O)CC[C@@H]23)C[C@@H](O)C[C@@H]1O [1,25-Dihydroxy-cholecalciferol, reference compound] ): 55
